Tested on: endogenous SSPN protein with an N-term fusion protein (C2C12 cells)
procedure_summary: C2C12 HiBiT assay (SSPN-HiBiT myotubes, primary screen)
Assay type: cell-based, murine
run_parameters: treated day 2, harvested day 4 of differentiation, concentration not given
readout_type: SSPN-HiBiT fold change over vehicle (fold)
Report as a plain number; the unit fold is understood.

compound	units_text	SSPN-HiBiT fold change over vehicle
COc1cc2cc(C(=O)Nc3ccc(C(=O)N4CCCOCC4)cc3)c(=O)[nH]c2cc1OC [DDL-461]	fold	1.1

Exercise: Query (compound): CN(C)c1ccc2cc(C(=O)Nc3ccc(C(=O)N4CCCOCC4)cc3)c(=O)oc2c1 [DDL-484] ; field requested: SSPN-HiBiT fold change over vehicle
Key: 1.1

Exercise: Note, next up: CC(C)N(c1ccc2cc(C(=O)Nc3ccc(C(=O)N4CCCOCC4)cc3)c(=O)oc2c1)C(C)C [DDL-491]
Key: 1.4

Exercise: Entry C#CCN(CC)c1ccc2cc(C(=O)Nc3ccc(C(=O)N4CCCOCC4)cc3)c(=O)oc2c1 [DDL-489] please
Key: 1.2
